# EXPERIMENT_DESCRIPTION: Measuring pKa value of amino alcohols by titration against NaOH in MDA/KCl
# STUDY_CONDITIONS: MDA = Methanol-Dioxane-Acetonitrile, 1:1:1
MEASUREMENT_KIND: solubility of sample in MDA mixture

C[Si](C[C@H](O)[C@@H]1CCCCN1)(C1CCCCC1)C1CCCCC1: Insoluble in MDA mixture
C[Si](C[C@H](O)[C@H]1CCCN1)(C1CCCCC1)C1CCCCC1: Sample Insoluble in MDA
C[Si](C[C@@H](O)[C@@H]1CCCN1)(C1CCCCC1)C1CCCCC1: Sample Insoluble in MDA
C[Si](C[C@@H](O)[C@@H]1CCCCN1)(C1CCCCC1)C1CCCCC1: Insoluble in MDA mixture
